Data credit: paper PMC3699650

system.name: PYL2 (with HAB1) (Arabidopsis thaliana)
Construct: PYL2 from E. coli BL21(DE3), pET-28a or pGEX-4T-2 (TEV site), IMAC and SEC; HAB1 residues 169-511, GST cut by TEV; with Protein phosphatase 2C 16
Sequence (O80992 whole entry, the tested form may be a part): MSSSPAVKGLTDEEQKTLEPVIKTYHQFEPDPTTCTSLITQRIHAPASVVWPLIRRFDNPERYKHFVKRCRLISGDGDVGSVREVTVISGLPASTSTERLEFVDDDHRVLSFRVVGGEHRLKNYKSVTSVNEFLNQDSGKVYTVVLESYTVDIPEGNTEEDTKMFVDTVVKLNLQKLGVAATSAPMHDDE
Sequence (Q9CAJ0 169-511 partner): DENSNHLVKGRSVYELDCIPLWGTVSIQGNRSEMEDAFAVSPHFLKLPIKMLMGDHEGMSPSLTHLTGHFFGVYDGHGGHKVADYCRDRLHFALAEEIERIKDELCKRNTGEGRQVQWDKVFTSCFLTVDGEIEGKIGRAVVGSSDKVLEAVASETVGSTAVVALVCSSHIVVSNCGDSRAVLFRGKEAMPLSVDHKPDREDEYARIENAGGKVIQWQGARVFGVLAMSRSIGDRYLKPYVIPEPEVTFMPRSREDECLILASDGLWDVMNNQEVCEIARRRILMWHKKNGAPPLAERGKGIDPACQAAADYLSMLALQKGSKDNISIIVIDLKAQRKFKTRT
test.description: HAB1 phosphatase inhibition assay (phosphopeptide, molybdate)
Type: biochemical
pIC50: −log10 of the molar value.

compound | pIC50
CC1=CC(=O)CC(C)(C)[C@]1(O)/C=C/C(C)=C\C(=O)O [(−)-ABA] | 5.60

###

system.name: PYL10 (with HAB1) (Arabidopsis thaliana)
Construct: PYL10 from E. coli BL21(DE3), pET-28a or pGEX-4T-2 (TEV site), IMAC and SEC; HAB1 residues 169-511, GST cut by TEV; with Protein phosphatase 2C 16
Sequence (Q8H1R0 whole entry, one chain of several, the tested form may be a part): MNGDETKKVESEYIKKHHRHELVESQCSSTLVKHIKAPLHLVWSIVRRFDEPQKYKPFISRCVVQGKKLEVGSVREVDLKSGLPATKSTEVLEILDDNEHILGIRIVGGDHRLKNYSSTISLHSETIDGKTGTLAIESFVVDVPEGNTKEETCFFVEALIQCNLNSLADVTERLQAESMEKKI
test.description: HAB1 phosphatase inhibition assay (phosphopeptide, molybdate)

molecule | unit.abbreviation | IC50
CC1=CC(=O)CC(C)(C)[C@]1(O)/C=C/C(C)=C\C(=O)O [(−)-ABA] | µM | 15
